TARGET: Full length human recombinant PIKFYVE (Homo sapiens, UniProt Q9Y2I7, L932S/Q1183K/Q995L/S1033A/S696N/T998S)
Construct: Full length human recombinant PIKFYVE; purchased Carna Biosciences (Kobe, Japan); host or cells: baculovirus expression system (insect cells)
Sequence (Q9Y2I7 whole entry S696N/L932S/Q995L/T998S/S1033A/Q1183K): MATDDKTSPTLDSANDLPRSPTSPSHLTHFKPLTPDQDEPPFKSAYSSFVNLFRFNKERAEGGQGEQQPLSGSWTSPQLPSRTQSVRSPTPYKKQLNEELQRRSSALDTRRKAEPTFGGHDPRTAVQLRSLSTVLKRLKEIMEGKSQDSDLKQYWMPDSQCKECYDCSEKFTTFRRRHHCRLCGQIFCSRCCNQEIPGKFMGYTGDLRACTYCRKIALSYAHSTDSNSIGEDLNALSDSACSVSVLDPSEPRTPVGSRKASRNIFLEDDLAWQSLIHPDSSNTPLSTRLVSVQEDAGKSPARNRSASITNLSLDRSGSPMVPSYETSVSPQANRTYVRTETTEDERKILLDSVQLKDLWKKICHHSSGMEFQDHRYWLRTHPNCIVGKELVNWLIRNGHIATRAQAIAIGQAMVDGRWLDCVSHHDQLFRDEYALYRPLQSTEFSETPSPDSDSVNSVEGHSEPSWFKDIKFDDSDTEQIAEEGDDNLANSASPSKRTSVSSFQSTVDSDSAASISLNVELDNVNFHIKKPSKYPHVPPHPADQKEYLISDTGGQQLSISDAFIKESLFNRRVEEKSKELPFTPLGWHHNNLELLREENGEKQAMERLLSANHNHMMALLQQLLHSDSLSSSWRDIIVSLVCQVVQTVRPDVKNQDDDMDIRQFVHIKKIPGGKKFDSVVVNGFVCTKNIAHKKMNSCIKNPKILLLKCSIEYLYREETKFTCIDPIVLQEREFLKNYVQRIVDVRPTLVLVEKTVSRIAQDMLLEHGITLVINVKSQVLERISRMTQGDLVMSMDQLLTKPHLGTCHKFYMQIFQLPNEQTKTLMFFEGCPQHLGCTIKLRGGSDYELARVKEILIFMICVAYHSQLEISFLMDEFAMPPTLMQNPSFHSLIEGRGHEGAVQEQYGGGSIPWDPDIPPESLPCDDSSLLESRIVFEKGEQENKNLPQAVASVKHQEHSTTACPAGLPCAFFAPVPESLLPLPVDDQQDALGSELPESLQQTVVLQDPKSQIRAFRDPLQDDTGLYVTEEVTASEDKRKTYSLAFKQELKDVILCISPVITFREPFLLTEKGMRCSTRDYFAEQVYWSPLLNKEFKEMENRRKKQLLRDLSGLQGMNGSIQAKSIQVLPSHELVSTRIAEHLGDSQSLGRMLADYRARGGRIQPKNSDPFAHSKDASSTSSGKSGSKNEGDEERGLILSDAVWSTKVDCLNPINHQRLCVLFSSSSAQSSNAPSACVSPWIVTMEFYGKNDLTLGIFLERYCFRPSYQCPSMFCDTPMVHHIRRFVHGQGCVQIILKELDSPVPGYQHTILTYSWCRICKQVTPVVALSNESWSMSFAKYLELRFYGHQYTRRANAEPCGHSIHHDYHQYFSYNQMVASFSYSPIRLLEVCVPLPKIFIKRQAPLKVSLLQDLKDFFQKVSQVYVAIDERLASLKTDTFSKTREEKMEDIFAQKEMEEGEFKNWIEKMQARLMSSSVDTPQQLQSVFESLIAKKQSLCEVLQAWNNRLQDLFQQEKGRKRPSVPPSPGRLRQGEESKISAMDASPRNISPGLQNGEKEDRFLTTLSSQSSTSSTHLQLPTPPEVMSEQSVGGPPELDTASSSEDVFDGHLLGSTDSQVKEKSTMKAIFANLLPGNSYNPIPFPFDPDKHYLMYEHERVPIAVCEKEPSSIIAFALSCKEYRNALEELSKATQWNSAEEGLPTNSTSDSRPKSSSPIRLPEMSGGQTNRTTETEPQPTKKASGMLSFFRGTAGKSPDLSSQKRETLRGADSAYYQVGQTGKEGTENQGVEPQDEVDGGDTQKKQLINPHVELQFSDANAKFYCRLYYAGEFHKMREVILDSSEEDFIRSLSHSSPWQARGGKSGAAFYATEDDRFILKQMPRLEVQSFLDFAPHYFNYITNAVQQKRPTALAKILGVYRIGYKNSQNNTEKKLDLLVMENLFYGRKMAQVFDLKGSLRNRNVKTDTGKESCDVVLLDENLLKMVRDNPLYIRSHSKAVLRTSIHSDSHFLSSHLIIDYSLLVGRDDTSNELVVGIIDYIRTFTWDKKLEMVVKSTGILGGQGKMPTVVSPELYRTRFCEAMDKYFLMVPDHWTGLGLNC
ASSAY TEXT: Inhibition of PIKfyve (microfluidic electrophoresis kinase assay)
Type: biochemical
SETTINGS: 2 nM enzyme, 1 μM PI3P, 3 h at room temperature, 12 concentrations; read-out: PIKfyve IC50
pIC50: −log10 of the molar value. Where a name gives a salt, the structure may show the parent alone.
I would appreciate it if you labelled entries criterion met when pIC50 is 6 or higher, otherwise criterion not met.

Worked examples, 3 compounds total:
CN(C)CCc1cnc2oc3c(N4CCOCC4)nc(Nc4cc(-c5ccccc5)n[nH]4)nc3c2c1; criterion met
Cc1ccnc(-c2cc(Nc3nc(N4CCOCC4)c4oc5ncccc5c4n3)[nH]n2)c1 [Example 7, hydrochloride]; criterion met
C[C@H](Nc1nc(N2CCOCC2)c2oc3ncccc3c2n1)C1CC1; criterion not met

Query :: Is pIC50 at least 6? Consider "Cc1cc(N(C)c2nc(N3CCOCC3)c3oc4ncccc4c3n2)nn1C"
Result :: criterion not met

Query :: Say whether Cc1cccc(-c2cc(Nc3nc(N4CCOCC4)c4oc5ncccc5c4n3)[nH]n2)n1 [Example 33, hydrochloride] shows pIC50 of 6 or more.
Result :: criterion met

Query :: Tell me whether pIC50 is at least 6 here: "Cc1ccccc1-c1cc(Nc2nc(N3CCOCC3)c3oc4ncccc4c3n2)[nH]n1"
Result :: criterion met

Query :: Hi team, for "c1ccc(-c2ccc(Nc3nc(N4CCOCC4)c4oc5ncccc5c4n3)cc2)cc1" , is the recorded pIC50 at or above 6?
Result :: criterion met

Query :: Does the reported pIC50 for "c1ccc(-c2cc(Nc3nc(N4CCOCC4)c4oc5ncc(CCN6CCCC6)cc5c4n3)[nH]n2)cc1" fall at or above the 6 mark?
Result :: criterion not met

---

TARGET: PI3Kδ (p110δ/p85α) (Homo sapiens, UniProt O00329)
Construct: Full-length N-terminal GST-; GST (N); host or cells: SF9 cells (baculovirus)
Sequence (O00329 whole entry): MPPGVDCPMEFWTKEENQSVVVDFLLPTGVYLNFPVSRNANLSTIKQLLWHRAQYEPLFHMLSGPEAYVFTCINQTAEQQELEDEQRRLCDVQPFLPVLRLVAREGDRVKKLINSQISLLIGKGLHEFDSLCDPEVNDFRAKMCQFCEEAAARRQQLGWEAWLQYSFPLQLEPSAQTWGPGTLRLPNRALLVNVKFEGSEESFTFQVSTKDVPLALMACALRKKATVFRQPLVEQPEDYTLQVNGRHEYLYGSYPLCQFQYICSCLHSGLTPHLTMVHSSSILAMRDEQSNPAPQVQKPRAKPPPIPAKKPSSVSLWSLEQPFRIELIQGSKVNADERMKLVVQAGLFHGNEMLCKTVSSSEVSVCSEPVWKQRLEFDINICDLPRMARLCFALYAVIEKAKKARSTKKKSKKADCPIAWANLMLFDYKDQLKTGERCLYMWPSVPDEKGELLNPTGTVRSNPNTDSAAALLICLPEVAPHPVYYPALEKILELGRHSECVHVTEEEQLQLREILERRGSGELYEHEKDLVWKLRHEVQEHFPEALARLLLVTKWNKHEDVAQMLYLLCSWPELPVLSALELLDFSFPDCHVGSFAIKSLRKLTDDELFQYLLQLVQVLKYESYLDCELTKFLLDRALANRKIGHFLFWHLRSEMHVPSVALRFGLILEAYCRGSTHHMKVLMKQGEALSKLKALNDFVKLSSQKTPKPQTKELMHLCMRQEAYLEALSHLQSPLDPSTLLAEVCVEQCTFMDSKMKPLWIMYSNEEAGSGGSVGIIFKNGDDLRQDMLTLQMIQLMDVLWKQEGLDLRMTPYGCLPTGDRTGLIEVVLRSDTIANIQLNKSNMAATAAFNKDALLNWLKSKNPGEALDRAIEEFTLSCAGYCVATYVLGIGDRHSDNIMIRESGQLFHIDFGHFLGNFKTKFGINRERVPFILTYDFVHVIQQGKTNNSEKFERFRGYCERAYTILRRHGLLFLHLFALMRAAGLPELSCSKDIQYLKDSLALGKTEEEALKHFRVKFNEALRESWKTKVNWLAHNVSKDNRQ
Sequence (P27986 whole entry, further chain): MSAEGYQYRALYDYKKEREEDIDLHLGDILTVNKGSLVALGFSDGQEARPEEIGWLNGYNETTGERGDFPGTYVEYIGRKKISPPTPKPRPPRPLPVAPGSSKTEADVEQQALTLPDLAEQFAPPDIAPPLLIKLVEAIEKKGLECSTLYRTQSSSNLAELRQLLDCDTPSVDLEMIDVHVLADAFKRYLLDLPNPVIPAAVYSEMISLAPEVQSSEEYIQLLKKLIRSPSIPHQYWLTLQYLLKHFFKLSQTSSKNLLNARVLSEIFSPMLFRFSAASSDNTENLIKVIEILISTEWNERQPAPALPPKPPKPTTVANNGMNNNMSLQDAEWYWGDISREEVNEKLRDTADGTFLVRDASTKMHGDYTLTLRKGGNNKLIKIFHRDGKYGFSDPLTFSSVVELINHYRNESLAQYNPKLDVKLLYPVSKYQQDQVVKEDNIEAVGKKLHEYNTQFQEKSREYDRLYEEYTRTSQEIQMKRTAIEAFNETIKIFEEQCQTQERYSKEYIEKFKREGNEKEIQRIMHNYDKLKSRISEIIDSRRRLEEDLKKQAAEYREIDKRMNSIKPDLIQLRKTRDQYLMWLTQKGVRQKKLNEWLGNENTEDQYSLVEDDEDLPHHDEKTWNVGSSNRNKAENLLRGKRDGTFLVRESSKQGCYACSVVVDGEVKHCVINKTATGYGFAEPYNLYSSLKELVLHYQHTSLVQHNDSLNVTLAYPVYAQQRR
Format: biochemical
SETTINGS: 0.25 nM enzyme, ATP 90 μM, 1 μM PIP2, 3 h room temperature; read-out: PI3Kδ IC50
pIC50: −log10 of the molar value. Counter-ions that a name gives are not always drawn.
// label = true (1) if pIC50 is not less than 7, otherwise false (0)

Query :: Textbook exercise: given the entry "Cc1cc(Nc2nc(N3CCOCC3)c3oc4ncccc4c3n2)nn1C" , state whether its pIC50 is greater than or equal to 7.
Result :: true (1)

Query :: Given "Cc1cc(Nc2nc(N3CCOCC3)c3oc4ncccc4c3n2)[nH]n1" , state whether its pIC50 is at least 7.
Result :: true (1)

Query :: State whether the measured pIC50 reaches 7, counting equality as reaching it, for c1cnc2oc3c(N4CCOCC4)nc(Nc4cc(C5CCC5)n[nH]4)nc3c2c1 [Example 55, hydrochloride]
Result :: true (1)

Query :: Can "c1cncc(Nc2nc(N3CCOCC3)c3oc4ncccc4c3n2)c1" be said to have pIC50 at or above 7?
Result :: true (1)

Query :: Item "c1cnc2oc3c(N4CCOCC4)nc(Nc4cc(-c5ccncc5)n[nH]4)nc3c2c1" with pIC50 of 7 or above?
Result :: true (1)

Query :: Is the recorded value of pIC50 equal to or greater than 7 for this compound? c1cnc2oc3c(N4CCOCC4)nc(Nc4cc(CC5CCC5)n[nH]4)nc3c2c1 [Example 56, hydrochloride]
Result :: true (1)

---

TARGET: PI3Kδ (p110δ/p85α) (Homo sapiens, UniProt O00329)
Construct: Full-length N-terminal GST-; GST (N); host or cells: SF9 cells (baculovirus)
Type: biochemical
Structures can show the parent of a compound that is named as a salt.
RESULT TYPE: pIC50
Answers are plain numbers, as −log10 of the molar value.

Query :: Return reported pIC50; argument: O=C(Nc1nc(N2CCOCC2)c2oc3ncccc3c2n1)Oc1ccccc1 [Example 22, hydrochloride]
Result :: 6.33

---

TARGET: Full length human recombinant PIKFYVE (Homo sapiens, UniProt Q9Y2I7, L932S/Q1183K/Q995L/S1033A/S696N/T998S)
Construct: Full length human recombinant PIKFYVE; purchased Carna Biosciences (Kobe, Japan); host or cells: baculovirus expression system (insect cells)
ASSAY TEXT: Inhibition of PIKfyve (microfluidic electrophoresis kinase assay)
Type: biochemical
SETTINGS: 2 nM enzyme, 1 μM PI3P, 3 h at room temperature, 12 concentrations; read-out: PIKfyve IC50
Structures can show the parent of a compound that is named as a salt.
RESULT TYPE: IC50 (nM)
One number for each entry, in nM.

c1ccc(-c2c[nH]c(Nc3nc(N4CCOCC4)c4oc5ncccc5c4n3)n2)cc1 [Example 20, hydrochloride]; 4750
FC(F)(F)c1cc(Nc2nc(N3CCOCC3)c3oc4ncccc4c3n2)[nH]n1 [Example 57, hydrochloride]; 5900
Fc1ccc(-c2cc(Nc3nc(N4CCOCC4)c4oc5ncccc5c4n3)[nH]n2)cc1F [Example 19, hydrochloride]; 2180
c1cnc2oc3c(N4CCOCC4)nc(Nc4cc(C5CCC5)n[nH]4)nc3c2c1 [Example 55, hydrochloride]; 1280
c1cnc2oc3c(N4CCOCC4)nc(Nc4cc(-c5ccncc5)n[nH]4)nc3c2c1 [Example 10]; 185

Please supply IC50 for each of the following items, keeping them in order.
1. c1ccc(Nc2nc(N3CCOCC3)c3oc4ncccc4c3n2)nc1 [Example 40]
2. Cc1cncc(-c2cc(Nc3nc(N4CCOCC4)c4oc5ncccc5c4n3)[nH]n2)c1 [Example 32, hydrochloride]
3. c1ccc(-c2cc(Nc3nc(N4CCOCC4)c4oc5ncccc5c4n3)[nH]n2)nc1 [Example 6, hydrochloride]

Result ::
1. 2770
2. 825
3. 251

---

TARGET: Full length human recombinant PIKFYVE (Homo sapiens, UniProt Q9Y2I7, L932S/Q1183K/Q995L/S1033A/S696N/T998S)
Construct: Full length human recombinant PIKFYVE; purchased Carna Biosciences (Kobe, Japan); host or cells: baculovirus expression system (insect cells)
ASSAY TEXT: Inhibition of PIKfyve (microfluidic electrophoresis kinase assay)
Type: biochemical
SETTINGS: 2 nM enzyme, 1 μM PI3P, 3 h at room temperature, 12 concentrations; read-out: PIKfyve IC50
Structures can show the parent of a compound that is named as a salt.
RESULT TYPE: pIC50
Numbers only, as −log10 of the molar value.

Fc1cccc(-c2cc(Nc3nc(N4CCOCC4)c4oc5ncccc5c4n3)[nH]n2)c1 [Example 16, hydrochloride]; 6.89
Cl.c1cnc2oc3c(N4CCOCC4)nc(Nc4cc(-c5ccsc5)n[nH]4)nc3c2c1 [Example 61, hydrochloride]; 7.59
CN(C)CCOc1ccc2c(n1)oc1c(N3CCOCC3)nc(Nc3cc(-c4ccccc4)n[nH]3)nc12 [Example 4, hydrochloride]; 7.17

Below are 3 compounds. Give each one its pIC50.
1. CN1CCN(CCCOc2ccc3c(n2)oc2c(N4CCOCC4)nc(Nc4cc(-c5ccccc5)n[nH]4)nc23)CC1 [Example 29, hydrochloride]
2. c1cncc(Nc2nc(N3CCOCC3)c3oc4ncccc4c3n2)c1
3. c1ccc(-c2ccccc2Nc2nc(N3CCOCC3)c3oc4ncccc4c3n2)cc1

Result ::
1: 8.52; 2: 5.66; 3: 5.41

---

Hi there, I'd appreciate the recorded IC50 for every entry that follows.
TARGET: Full length human recombinant PIKFYVE (Homo sapiens, UniProt Q9Y2I7, L932S/Q1183K/Q995L/S1033A/S696N/T998S)
Construct: Full length human recombinant PIKFYVE; purchased Carna Biosciences (Kobe, Japan); host or cells: baculovirus expression system (insect cells)
ASSAY TEXT: Inhibition of PIKfyve (microfluidic electrophoresis kinase assay)
Assay type: biochemical
SETTINGS: 2 nM enzyme, 1 μM PI3P, 3 h at room temperature, 12 concentrations; read-out: PIKfyve IC50
Structures can show the parent of a compound that is named as a salt.
One number for each entry, in nM.

Below, each entry is followed by its recorded IC50 result.
Fc1ccccc1-c1cc(Nc2nc(N3CCOCC3)c3oc4ncccc4c3n2)[nH]n1 [Example 15, hydrochloride]; 108
c1cnc2oc3c(N4CCOCC4)nc(Nc4cc(CC5CCC5)n[nH]4)nc3c2c1 [Example 56, hydrochloride]; 1790
COc1cccc(-c2cc(Nc3nc(N4CCOCC4)c4oc5ncccc5c4n3)[nH]n2)c1 [Example 34, hydrochloride]; 303
CC(C)c1cc(Nc2nc(N3CCOCC3)c3oc4ncccc4c3n2)[nH]n1 [Example 63, hydrochloride]; 1850
CCc1cc(Nc2nc(N3CCOCC3)c3oc4ncccc4c3n2)[nH]n1 [Example 62, hydrochloride]; 7850

Each compound below has a recorded value; state its IC50.
1. c1ccc(Cc2cc(Nc3nc(N4CCOCC4)c4oc5ncccc5c4n3)[nH]n2)cc1 [Example 58, hydrochloride]
2. c1ccc(-c2cc(Nc3nc(N4CCOCC4)c4oc5nc(OCCCN6CCCC6)ccc5c4n3)[nH]n2)cc1 [Example 27, hydrochloride]

Result ::
1. 831
2. 16
